experimentalTarget: C5 (Homo sapiens, UniProt P01031)
Sequence (P01031 19-1676): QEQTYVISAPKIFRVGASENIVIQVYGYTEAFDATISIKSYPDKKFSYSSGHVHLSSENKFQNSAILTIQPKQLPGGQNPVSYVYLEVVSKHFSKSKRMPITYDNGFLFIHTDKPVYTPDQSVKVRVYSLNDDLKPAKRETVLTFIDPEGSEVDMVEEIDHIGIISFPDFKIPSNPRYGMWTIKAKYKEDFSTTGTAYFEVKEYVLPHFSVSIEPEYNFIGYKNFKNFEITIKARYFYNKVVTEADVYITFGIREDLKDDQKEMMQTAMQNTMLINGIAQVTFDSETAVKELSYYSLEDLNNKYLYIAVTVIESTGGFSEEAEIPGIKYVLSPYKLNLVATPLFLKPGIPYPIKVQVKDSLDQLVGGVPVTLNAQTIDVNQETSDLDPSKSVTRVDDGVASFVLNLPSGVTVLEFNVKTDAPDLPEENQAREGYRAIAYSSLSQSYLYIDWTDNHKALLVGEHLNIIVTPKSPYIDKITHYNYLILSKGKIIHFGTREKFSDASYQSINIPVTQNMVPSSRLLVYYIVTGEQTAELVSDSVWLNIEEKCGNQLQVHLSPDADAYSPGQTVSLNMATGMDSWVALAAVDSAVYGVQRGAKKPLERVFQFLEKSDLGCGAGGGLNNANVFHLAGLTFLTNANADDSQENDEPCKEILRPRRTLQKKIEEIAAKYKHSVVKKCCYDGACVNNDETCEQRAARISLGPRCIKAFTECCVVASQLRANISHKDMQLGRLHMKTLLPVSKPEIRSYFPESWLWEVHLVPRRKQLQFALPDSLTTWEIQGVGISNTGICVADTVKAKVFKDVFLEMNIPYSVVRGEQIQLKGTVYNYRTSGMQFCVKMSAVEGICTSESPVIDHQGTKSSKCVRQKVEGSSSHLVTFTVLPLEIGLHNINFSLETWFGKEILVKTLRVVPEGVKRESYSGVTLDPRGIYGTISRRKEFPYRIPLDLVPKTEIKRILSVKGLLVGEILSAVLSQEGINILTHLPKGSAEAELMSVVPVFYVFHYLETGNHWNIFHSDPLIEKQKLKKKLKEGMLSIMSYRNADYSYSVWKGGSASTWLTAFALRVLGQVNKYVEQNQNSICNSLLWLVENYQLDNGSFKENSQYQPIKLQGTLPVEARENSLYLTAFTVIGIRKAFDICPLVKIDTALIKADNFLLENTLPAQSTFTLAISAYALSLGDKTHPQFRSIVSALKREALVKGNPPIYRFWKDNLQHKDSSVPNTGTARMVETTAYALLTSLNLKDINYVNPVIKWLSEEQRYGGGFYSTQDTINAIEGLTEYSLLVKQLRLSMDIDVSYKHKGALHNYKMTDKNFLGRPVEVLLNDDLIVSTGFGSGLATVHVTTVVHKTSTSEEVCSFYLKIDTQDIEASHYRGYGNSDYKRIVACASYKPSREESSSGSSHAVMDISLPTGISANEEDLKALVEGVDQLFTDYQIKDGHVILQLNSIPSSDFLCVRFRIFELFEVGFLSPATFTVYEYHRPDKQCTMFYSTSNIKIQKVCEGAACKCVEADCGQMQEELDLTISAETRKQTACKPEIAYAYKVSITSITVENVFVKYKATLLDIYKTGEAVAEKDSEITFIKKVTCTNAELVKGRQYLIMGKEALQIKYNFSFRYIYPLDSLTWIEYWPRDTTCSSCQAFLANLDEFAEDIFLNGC
assayRemarks: Competitive fluorescence polarization assay with probe R3076
Type: binding
Design: purchased Complement Technology, Tyler, Tex
conditionSet: average of Exp 1 and Exp 2; read-out: Avg, nM Ki
Starred links: 1 amine or outer side, 2 acyl side, 3 side chain; linkers in the order of their positions; H or OH if unused. Positions of bridges follow the written chain, without caps; N, C: chain ends. Non-standard residues stand in square brackets, D forms with d. Residues, ends and D or L forms follow the SMILES beside them. Trp(7-aza) = N[C@@H](Cc1c[nH]c2ncccc12)C(=O)O; mXylylene = c1cc(C[*:1])cc(C[*:2])c1; pXylylene = c1cc(C[*:2])ccc1C[*:1]; Phg = N[C@H](C(=O)O)c1ccccc1; NMeS = CN[C@@H](CO)C(=O)O; Nva = CCC[C@H](N)C(=O)O
propertyLabel: Ki
Please answer in the form of a number followed by its unit of measurement.

- molecule: "CCC[C@H](NC(=O)[C@@H]1CSCc2ccc(cc2)CSC[C@H](NC(=O)[C@H](CCC)NC(C)=O)C(=O)N[C@@H](c2ccccc2)C(=O)N[C@@H]([C@@H](C)O)C(=O)N[C@@H](Cc2c[nH]c3ncccc23)C(=O)N[C@@H](CCC(=O)O)C(=O)N[C@@H](Cc2ccc(O)cc2)C(=O)N(C)[C@@H](CO)C(=O)N[C@@H](Cc2c[nH]cn2)C(=O)N1)C(N)=O [Compound R3050] (Ac-[Nva]C[Phg]T[Trp(7-aza)]EY[NMeS]HC[Nva]-NH2; linker 2-10 via pXylylene)"
  experimentalTarget: "C5 (Homo sapiens, UniProt P01031)"
  Ki: "64.3 nM"

Turning now to a further record.
Observed Ki on C5 (Homo sapiens, UniProt P01031) for CCC[C@H](NC(C)=O)C(=O)N[C@H]1CSCc2cccc(c2)CSC[C@@H](C(=O)N[C@@H](CCC)C(=O)N2CCC[C@H]2C(N)=O)NC(=O)[C@H](Cc2c[nH]cn2)NC(=O)[C@H](CO)N(C)C(=O)[C@H](Cc2ccc(O)cc2)NC(=O)[C@H](CCC(=O)O)NC(=O)[C@H](Cc2c[nH]c3ncccc23)NC(=O)[C@H]([C@@H](C)O)NC(=O)[C@H](c2ccccc2)NC1=O [Compound R3011] (Ac-[Nva]C[Phg]T[Trp(7-aza)]EY[NMeS]HC[Nva]P-NH2; linker 2-10 via mXylylene) , please.
80 nM

====

experimentalTarget: C5 (Homo sapiens, UniProt P01031)
assayRemarks: Human hemolysis assay (RBC lysis assay using complete human sera)
Format: cell-based
Design: with complete human sera (Complement Technology, Tyler Tex.) and polypeptides; tissue Complement Technology, Tyler Tex; host or cells: complete human serum
conditionSet: inhibition of lysis of antibody-sensitized sheep erythrocytes, complete human sera
Starred links: 1 amine or outer side, 2 acyl side, 3 side chain; linkers in the order of their positions; H or OH if unused. Positions of bridges follow the written chain, without caps; N, C: chain ends. Non-standard residues stand in square brackets, D forms with d. Residues, ends and D or L forms follow the SMILES beside them. Trp(7-aza) = N[C@@H](Cc1c[nH]c2ncccc12)C(=O)O; mXylylene = c1cc(C[*:1])cc(C[*:2])c1; Phg = N[C@H](C(=O)O)c1ccccc1; NMeS = CN[C@@H](CO)C(=O)O; Nva = CCC[C@H](N)C(=O)O
# IC50 listing for each entry below

- molecule: "CCC[C@H](NC(=O)[C@@H]1CCCN1C(=O)[C@H](CCC)NC(=O)[C@@H]1CSCc2cccc(c2)CSC[C@H](NC(=O)[C@H](CCC)NC(C)=O)C(=O)N[C@@H](c2ccccc2)C(=O)N[C@@H]([C@@H](C)O)C(=O)N[C@@H](Cc2c[nH]c3ncccc23)C(=O)N[C@@H](CCC(=O)O)C(=O)N[C@@H](Cc2ccc(O)cc2)C(=O)N(C)[C@@H](CO)C(=O)N[C@@H](Cc2c[nH]cn2)C(=O)N1)C(N)=O [Compound R3008] (Ac-[Nva]C[Phg]T[Trp(7-aza)]EY[NMeS]HC[Nva]P[Nva]-NH2; linker 2-10 via mXylylene)"
  IC50: "97 nM"
- molecule: "CCC[C@H](NC(=O)[C@@H]1CSCc2cccc(c2)CSC[C@H](NC(=O)[C@@H](NC(=O)[C@@H](NC(=O)[C@H](CCC)NC(C)=O)[C@@H](C)O)c2ccccc2)C(=O)N[C@@H](Cc2c[nH]c3ncccc23)C(=O)N[C@@H](CCC(=O)O)C(=O)N[C@@H](Cc2ccc(O)cc2)C(=O)N(C)[C@@H](CO)C(=O)N[C@@H](C)C(=O)N1)C(N)=O [Compound R3111] (Ac-[Nva]T[Phg]C[Trp(7-aza)]EY[NMeS]AC[Nva]-NH2; linker 4-10 via mXylylene)"
  IC50: "> 5000 nM"

Turning now to a further record.
Please report the recorded IC50 for CCC[C@H](NC(=O)[C@@H]1CSCc2cccc(c2)CSC[C@H](NC(=O)[C@H](CCC)NC(C)=O)C(=O)N[C@@H](c2ccccc2)C(=O)N[C@@H]([C@@H](C)O)C(=O)N[C@H](Cc2c[nH]c3ccccc23)C(=O)N[C@@H](CCC(=O)O)C(=O)N[C@@H](Cc2ccc(O)cc2)C(=O)N(C)[C@@H](CO)C(=O)N[C@@H](Cc2c[nH]cn2)C(=O)N1)C(N)=O [Compound R3132] (Ac-[Nva]C[Phg]T[dW]EY[NMeS]HC[Nva]-NH2; linker 2-10 via mXylylene) .
> 100000 nM

Each recorded value in this set is attributed to patent US10208089B2.
